Entries annotated with measured cytotoxicity at 10 µM
test: Toxicity liver stage against HepG2, at 10uM
Assay type: cell-based
Set-up: test concentration 10 uM, cell line HepG2-A16-CD81EGFP
assay_context: human, HepG2-A16-CD81EGFP cells; read-out: INHIBITION
readout_kind: cytotoxicity at 10 µM

- C[C@@H]1CN(c2nc3c(cc2C(N)=O)CCC3)CC[C@@]1(O)C1CCC1: 0.186%
- Cc1nn(CCCNC(=O)C2CCN(S(C)(=O)=O)CC2)cc1Cl: -1.94%
- CN(CCc1cn[nH]c1)C(=O)C(c1ccc(F)cc1)N(C)C (stereo not drawn): -19.5%
- Cc1cc(C(=O)N2CCc3ncc(CN4CCOCC4)n3CC2)no1: 3.76%
- Cc1cc(C)n(CC2CCCN2CCCS(=O)(=O)N(C)C)n1 (stereo not drawn): -13.2%
- CCn1cc(CNC(=O)CCn2ncc3c(Cl)cccc32)cn1: 10.9%
- c1cc(-c2n[nH]cc2-c2ccnc(N3CCCC3)n2)ccn1: -0.779%
- CCS(=O)(=O)N1C[C@@H](OCc2cccnc2)[C@H]2OCCC[C@H]21: 3.6%
- CC(CN1CCC(CCO)CC1)n1cnc2ccccc21 (stereo not drawn): 5.34%
- CS(=O)(=O)c1nccn1Cc1ccncc1: 14.5%
- CN1CCN(S(=O)(=O)c2ncn(C)c2Cl)CC1: 6.84%
- CCc1cccc(N2CCC(NC(=O)C3CCOCC3)CC2)c1: -8.93%
- COc1ccc2[nH]cc(C(=O)CNc3nc(C)cs3)c2c1: 6.04%
- Cc1cnc(C)c(N2CCN(Cc3ccc(-c4cc[nH]n4)o3)CC2)n1: -5.01%
- Cc1ccc(CN2CC3(CCNCC3)CCC2=O)c(F)c1F: 4.95%
- COCCN1CCN(Cc2coc(-c3ccccc3Cl)n2)CC1: -1.67%
- O=C(NC1CC1)c1cc(NC(=O)N2CCCC2)ccc1Cl: 3.31%
- O=C(Cn1ccc2cc(Br)ccc21)NCc1ccc(C(=O)O)cc1: 9.6%
- O=C(c1ccc[nH]1)N1CCn2cc(Cn3cncn3)nc2C1: -2.65%
- COc1ncccc1NC(=O)NC(CCCO)c1ccccc1 (stereo not drawn): 11.2%
- O=C(NCC1CCC(c2ccnc3ncnn23)CC1)C1CC1 (stereo not drawn): 9.17%
- C[C@@H]1CN(C(=O)Cc2ccsc2)C[C@]12CCN(CCN(C)C)C2=O: -1.1%
- CN(C)Cc1cccc(-c2cccnc2C(=O)NCC2CC2)c1: 1.59%
- O=C(NCc1cccnc1)N1CCSCC1CCO (stereo not drawn): -1.46%
- COc1ccc2c(c1)OCC(CNC(=O)c1ccc3[nH]nnc3c1)C2 (stereo not drawn): -7.72%
- Cc1ccc(CNCC2Cn3nnc(-c4cnn(C)c4)c3CO2)o1 (stereo not drawn): 2.42%
- Cc1nn(C)c2cnn(CC(=O)NCc3ccccc3F)c12: 7.8%
- O=C1C(Nc2ncccn2)CCN1c1ccccc1OC(F)F (stereo not drawn): 2.88%
- O=C(N1CCC(Oc2ccncc2)C1)C1(c2ccc(F)cc2)CC1 (stereo not drawn): -8.55%
- COc1cccc(C(CO)NC(=O)NC(C)C)c1 (stereo not drawn): 10.5%
- COc1ccc(S(=O)(=O)NCCC(O)c2ccoc2)c(C)c1 (stereo not drawn): -0.608%
- Cc1ccc2c(c1)CCC2NCc1c(C)nn(C)c1N1CCOCC1 (stereo not drawn): -8.03%
- O=C(c1ccncc1)N1CC[C@@H]2CN(C3CCOCC3)CCO[C@@H]2C1: -110%
- O=C(CC1CC1)N1CC[C@H]2OCC[C@@]2(COc2ncccc2F)C1: -134%
- CN(C)C(=O)CN1C[C@H]2CC[C@@H](C1)N(Cc1ccccc1OCCO)C2: 8.79%
- COCC(=O)N1CCC(C(=O)Nc2ccc(S(N)(=O)=O)cc2)CC1: -1.47%
- COCCN(C)c1ccc(NCc2cscn2)nc1: 0.513%
- NC(=O)CN1CCC(NC2CCCCc3ccccc32)CC1 (stereo not drawn): -7.86%
- CN(C)C(=O)CCCNc1ncc2c(n1)CCN2c1ccccc1: 2.29%
- C[C@@H]1CN(C(=O)CCN2CCOCC2)CC[C@]1(C)O: -0.51%
- COCC(=O)N1CCCN(c2ncnc3c2CCNCC3)CC1: 8.93%
- O=C([C@H]1CCCO1)N1CCC2(CCCN(CCOc3ccccc3)C2)C1 (stereo partly drawn): -3.25%
- O=C(Nc1cccnc1)[C@H]1C[C@H]2CN(C(=O)NC3CCCC3)C[C@@H]1O2: 2.96%
- CC1CCC(NC(=O)c2nn(C)cc2Br)CC1 (stereo not drawn): -3.76%
- c1ccc(-c2nc(CN3CCOC(Cn4cccn4)C3)co2)cc1 (stereo not drawn): 0.724%
- O=C(CN(CC(O)c1ccc(F)cc1)C1CC1)NC(C1CC1)C1CC1 (stereo not drawn): 11.8%
- O=C(CCOc1ccc(Br)cc1)N1CCN(c2cnccn2)CC1: 0.207%
- Cc1c(Br)cccc1C(=O)NC(C)CN1CCCC1=O (stereo not drawn): -1.58%
